# target: Endothelin-1 receptor (Homo sapiens, UniProt P25101)
# Sequence (P25101 whole entry): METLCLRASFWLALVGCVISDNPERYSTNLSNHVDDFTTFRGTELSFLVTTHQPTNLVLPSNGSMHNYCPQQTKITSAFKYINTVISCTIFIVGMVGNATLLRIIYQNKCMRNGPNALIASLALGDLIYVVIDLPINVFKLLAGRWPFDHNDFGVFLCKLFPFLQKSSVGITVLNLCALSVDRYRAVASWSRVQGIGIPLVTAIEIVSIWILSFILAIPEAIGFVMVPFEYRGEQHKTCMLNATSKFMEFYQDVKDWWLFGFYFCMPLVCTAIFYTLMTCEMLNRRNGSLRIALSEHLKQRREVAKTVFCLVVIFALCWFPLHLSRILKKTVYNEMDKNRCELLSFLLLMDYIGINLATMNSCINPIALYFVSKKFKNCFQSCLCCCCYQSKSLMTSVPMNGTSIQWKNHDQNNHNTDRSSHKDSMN
# procedure.details: Binding affinity in LtK cells stably transfected with human endothelin A (ETA) receptor
# Assay type: cell-based
Residues, ends and D or L forms follow the SMILES beside them.
endpoint.label: IC50

Sample answers from the record:
molecule="C[C@@H]1NC(=O)[C@H]([C@@H](C)O)NC(=O)CNC(=O)[C@H](Cc2c[nH]cn2)NC(=O)[C@H](Cc2c[nH]c3ccccc23)NC(=O)[C@H](CC(N)=O)NC(=O)CNC(=O)C[C@@H](C(=O)N[C@@H](Cc2c[nH]c3ccccc23)C(=O)N[C@@H](Cc2ccccc2)C(=O)N[C@@H](Cc2ccccc2)C(=O)N[C@@H](CC(N)=O)C(=O)N[C@@H](Cc2ccc(O)cc2)C(=O)N[C@@H](Cc2ccc(O)cc2)C(=O)N[C@@H](Cc2c[nH]c3ccccc23)C(=O)O)NC(=O)[C@@H]2CCCN2C1=O (stereo in doubt; 1)" endpoint_label=IC50 observed_measurement="> 5 µM"
molecule="NC(=O)C[C@H](NC(=O)[C@H](Cc1ccccc1)NC(=O)[C@@H](N)Cc1ccccc1)C(=O)N[C@@H](Cc1ccc(O)cc1)C(=O)N[C@@H](Cc1ccc(O)cc1)C(=O)N[C@@H](Cc1c[nH]c2ccccc12)C(=O)O (H-FFNYYW-OH)" endpoint_label=IC50 observed_measurement="> 25 µM"

I have this molecule here, C[C@H](NC(=O)[C@@H](NC(=O)CNC(=O)[C@H](Cc1c[nH]cn1)NC(=O)[C@@H](N)Cc1c[nH]c2ccccc12)[C@@H](C)O)C(=O)N1CCC[C@H]1C(=O)N[C@@H](CC(=O)O)C(=O)N[C@@H](Cc1c[nH]c2ccccc12)C(=O)N[C@@H](Cc1ccccc1)C(=O)N[C@@H](Cc1ccccc1)C(=O)N[C@@H](CC(N)=O)C(=O)N[C@@H](Cc1ccc(O)cc1)C(=O)N[C@@H](Cc1ccc(O)cc1)C(=O)N[C@@H](Cc1c[nH]c2ccccc12)C(=O)O (H-WHGTAPDWFFNYYW-OH) , and I need its recorded IC50. > 2.5 µM
